Test system: MS2 coat protein
Test: apparent KD of MS2 coat protein; designed switch direction (-1 OFF switch, 1 ON switch): 1; higher = weaker reporter binding
Conditions: input ligand: none
measuredProperty: apparent KD of MS2 coat protein (nM)
Give bare numbers, in nM.

Exam item: So what's the measured apparent KD of MS2 coat protein for this one? GGAGCCGGCACCGAGGAUAUUCAUAUUAAAACAUGAGGAUCACCCAUGUAGGCCAGAAGGCCUUGGGAGAAGGCGGAUCGGCUCG [Xeonanis] (Eterna round: R96, puzzle: Same State 2)
Marked response: 544

Exam item: Name the reported apparent KD of MS2 coat protein value associated with the sequence AAACGCAGCAUAUCGCUGCGACAUGAGGAUCACCCAUGUACACAGGAUAUCGCGGCAUACCGCCACGAGAAGGGUGAUCAAGAC [Vebixeriso] (Eterna round: R96, puzzle: Same State NG 3)
Marked response: 45.2

Exam item: Find the recorded apparent KD of MS2 coat protein belonging to UUAACAUGAGGAUCACCCAUGUAUAGGGAGUUAGCAAUUUGACAGGAUAUUGAAGAUGUAGAUAGCAAGAAGGGUCGGUAGUCU [JR_SSNG3_Sub003] (Eterna round: R96, puzzle: Same State NG 3) and report it.
Marked response: 45.9

Exam item: // lookup apparent KD of MS2 coat protein for GGAGCCGGUACUGAGGAUAUUCAUAUUAAAACAUGAGGAUCACCCAUGUAGGCCAGAAGGCCUUGGGAGAAGGCAGAUCGGCUCC [Biceusra] (Eterna round: R96, puzzle: Same State 2)
Marked response: 233

Exam item: # query: apparent KD of MS2 coat protein of entry ACCGCGUUUCGCGCCUACAUGAGGAUCACCCAUGUUUGUAGGCAGGAUAUCGUCCGCUCUGCGGGCGAGAAGGGCUGUUGUGGU [salish99_SSNG3_R04_028] (Eterna round: R96, puzzle: Same State NG 3)
Marked response: 60.8

Exam item: Given the entry UGGCUCAGACGAGGAUAUAUGUGGUCACAUGAGGAUCACCCAUGUCUCGAGCUUCGGCUCGAGGCAUAGAAGGUGUCUGAGCCU [SSNG2/5-C3] (Eterna round: R96, puzzle: Same State NG 2) , report its measured apparent KD of MS2 coat protein.
Marked response: 23.1

Please look at the items below and tell me apparent KD of MS2 coat protein for each one, in order.
1. UGAAUAGUGAUAGGAUAUACAUGAGGAAUCCUCGUAGAAGGAUCAUAACAUGAGGAUCACCCAUGUAGCGCUCAGAAGAGCGCA [Mat - Same State NG 1 - JL mod - D54] (Eterna round: R96, puzzle: Same State NG 1)
2. GAGAGGAUAUGGAGAGGAUCACCCUCUAGAAGGCUCGAAGGAGAGGAUAUGGAGAGGAUCACCCUCUAGAAGGCUCACUUCUCU [pwkr ssNG3 DX 2xF5 +2xFMN.6] (Eterna round: R96, puzzle: Same State NG 3)
3. GAAUAGUUGAGAGGAUAUCUAUUAUAAAAGGAUAGAGAAGGUUUUAACAUGAGGAUCACCCAUGUAGGACUAUAUAUGUGAAUA [Parity 100 - Jieux - Same State NG 1] (Eterna round: R96, puzzle: Same State NG 1)
4. ACAUGAGAUAGAGGAUAUGUUGUACCUACAUGUGACAUGAGGAUCACCCAUGUGGUAAGUAUGAUACAGAAGGCUAAGAUAUGU [Equivalance 60 - Jieux - Same State NG 2] (Eterna round: R96, puzzle: Same State NG 2)
5. GUGCUCGUGUGAGGAUAUGUUGCCGGGUCGGCUGCAGAAGGUACUAUUAUACAUGAGGAUCACCCAUGUCGCUUUUCUCCGGUG [salish99_SSNG1_r04_920] (Eterna round: R96, puzzle: Same State NG 1)
6. CAAGGGUACGGAUUAGUACAUGAGGAUCACCCAUGUAUCCGACAGGAUAUCAUGUAAGAAGCCAGUGAGAAGGGUCUAGUCCAA [Eternabot solution 43] (Eterna round: R96, puzzle: Same State NG 3)
7. GUUACAUGAGGAUCACCCAUGUAUGUGUGGGAGUAAGUGUCUUAGGAUAUCUAGUAUUUUAUUUAAGAGAAGGAAGAUUGUUGU [JMF's solution 59] (Eterna round: R96, puzzle: Same State NG 3)

Marked response:
81.3
156
16.1
30.1
65.8
460
112

----------
Tested on: MS2 coat protein
Assay: apparent KD of MS2 coat protein; designed switch direction (-1 OFF switch, 1 ON switch): -1; higher = weaker reporter binding
Conditions: input ligand: microRNA oligo, concentration not stated
measuredProperty: apparent KD of MS2 coat protein (nM)
Answers are plain numbers, in nM.

See these solved cases before continuing.
Exam item: Query the reported apparent KD of MS2 coat protein for MS2 coat protein; item: UUUUUAUAUGAAGGAUAUACUUAACAUGAGGAUCACCCAUGUGGUGUUGUGAGUGAGUGAGUUUAGUAGAAGGUCAAGUAUUCU [JMF's solution 40] (Eterna round: R96, puzzle: Exclusion NG 2)
Marked response: 306

Exam item: Identify the measured apparent KD of MS2 coat protein of UACAUGAGGAUCACCCAUGUUUUGUCGUGUAUGGUAUUUAUCUAGGAUAUCAUUCUAUUUAGUUAUGAGAAGGAGAAUAUUAAU [JMF's solution 84] (Eterna round: R96, puzzle: Exclusion NG 3) for MS2 coat protein.
Marked response: 21.1

Exam item: Please tell me: apparent KD of MS2 coat protein of CUAAAUCAUGUAGGAUAUGCGUGGCGAAGCUAUGCAGAAGGACAUGAGGAUCACCCAUGUCUUUCCGUCUGCGUACAGACGGGA [JL ENG1 1.20] (Eterna round: R96, puzzle: Exclusion NG 1) , system MS2 coat protein?
Marked response: 14.5

Exam item: What apparent KD of MS2 coat protein appears in the records for this sequence with MS2 coat protein? GAGCCAUCGUGAGAUGGCUAAAUUACAUGAGGAUCACCCAUGUAGGAUAUCGAUUGCUUUGCAGUCGAGAAGGACAUGUUUAAU [JL ENG3 3.99] (Eterna round: R96, puzzle: Exclusion NG 3)
Marked response: 27.8

Exam item: Tell me reported apparent KD of MS2 coat protein for UUUUUAUAUGAAGGAUAUACUUAACAUGAGGAUCACCCAUGUGGUGUUGUGAGUGAGUGAGUUUAGUAGAAGGUCAAUUAGUAU [JMF's solution 101] (Eterna round: R96, puzzle: Exclusion NG 2) , tested with MS2 coat protein.
Marked response: 253

Exam item: What measured apparent KD of MS2 coat protein is associated with AUCGUGCAGCUUUGCUGUACGAGUACAUGAGGAUCACCCAUGUAGGAUAUGGUACGCUUUGCGUGCCAGAAGGACGUGCGUUAG [salish99_ExNG3_r04_003] (Eterna round: R96, puzzle: Exclusion NG 3) on MS2 coat protein?
Marked response: 34.3

Please give apparent KD of MS2 coat protein for each item listed below.
1. AGCUAGUCAGGAUAUACGUAAAUGUCGAAAGACGUAUUGGGACAUGAGGAUCACCCAUGUAGAAGGGACUAGCA [Mod of Janderson's WEB Mod v.1] (Eterna round: R96, puzzle: Exclusion 2)
2. UUUAUAUAGUAAGGAUAUGUAUUAUUUUUGUCAACAGAAGGUACUGACAUGAGGAUCACCCAUGUUUUAGUGUGGGCAUGUAGU [JMF's solution 99] (Eterna round: R96, puzzle: Exclusion NG 1)
3. AGUACUGACACGUUGGUGUUAGUACAAUAAGCUUGUGACACAUGAGGAUCACCCAUGUCCUCAUAAGCUCGUCUUAU [salish99_TOv2_r2_094] (Eterna round: R96, puzzle: Sensor v3, turn-off variant 2)

Marked response:
19.7
177
468

----------
System: MS2 coat protein
Test: apparent KD of MS2 coat protein; designed switch direction (-1 OFF switch, 1 ON switch): -1; higher = weaker reporter binding
Details: Eterna round: R95; input ligand: none
Please enter Criterion met where apparent KD of MS2 coat protein is greater than or equal to 30 nM, and Criterion not met where it is lower.

Exam item: Assess whether reported apparent KD of MS2 coat protein for GAAAAGGUAGGAUAUACGAAAAAAAAGGGUAGAAAAAAAACACAUGAGGAUCACCCAUGUAGAAGGACCAAAGG [salish99_ex2_r3_040] (puzzle: Exclusion 2) sits at 30 nM or higher.
Marked response: Criterion not met

Others:
Exam item: API: above_or_equal(metric=apparent KD of MS2 coat protein, cutoff=30 nM) for item CCGGAAUUGGAGGAUAUAGGAGUCGAUAGACACCUAGAAGGUCAGACAUGAGGAUCACCCAUGUGUCCUACCGG [Fiskers Ex 6 - 87] (puzzle: Exclusion 6)
Marked response: Criterion not met

Exam item: Hello, I need to know if GGAAGUAGAAACCGAUCCUACAUGAGGAUCACCCAUGUAGCAAGACGUGCACGCGAAGCUCGUCAGACUACCAGAAC [salish99_TOv1_r3_012] (puzzle: Sensor v3, turn-off variant 1) has measured apparent KD of MS2 coat protein not below 30 nM. Thanks!
Marked response: Criterion met

Exam item: Kindly determine if apparent KD of MS2 coat protein recorded for CGUCCUGUAGUGAGGAUAUUGUCUCGGAUACGAAACAAGAAGGCACAUGAGGAUCACCCAUGUAAUCAGGACGA [Malc #30 mod 12] (puzzle: Brourd's mod of Exclusion 4) is above or exactly 30 nM.
Marked response: Criterion not met

Exam item: Has CGAAGUAGAAACCGAUCCUACAUGAGGAUCACCCAUGUAGCAAGACGUGCACGCGAAGCUCGUCAGACUACCAGAAA [salish99_TOv1_r3_016] (puzzle: Sensor v3, turn-off variant 1) a recorded apparent KD of MS2 coat protein greater than or equal to 30 nM?
Marked response: Criterion met

Exam item: Determine whether this sequence has apparent KD of MS2 coat protein no lower than 30 nM: UUUAAUUUUUUUUUUUUACAAGCUUUUUGCUCGUCUUAUACAUGAGGAUCACCCAUGUAGGUGGGAGGUAAAUUAUC [JMF 79] (puzzle: Sensor v3, turn-off variant 2)
Marked response: Criterion met

Exam item: // inclusive: apparent KD of MS2 coat protein at least 30 nM? input: CGGGAGGGACAAGCUUUUUGCACGUCUGUUAUUGAUGCUACAUGAGGAUCACCCAUGUUUAGGGUGUGUGAGGAUGG [JR_SV3TOV2_Sub052] (puzzle: Sensor v3, turn-off variant 2)
Marked response: Criterion met

Exam item: Please indicate if the recorded apparent KD of MS2 coat protein for AGUAACCGUCACGAAAGUGAUGGUUACACAAGUAAUGAAACAUGAGGAUCACCCAUGUCCUCAUUUGCUCGUCUUAU [Sensor 3 - 39] (puzzle: Sensor v3, turn-off variant 2) meets or exceeds 30 nM.
Marked response: Criterion met

Exam item: Would you say GAUUAUGCGAGCUUUAGGGACAUGAGGAUCACCCAUGUUCGUCUUAUUAGUCUGGGUACGCUAACAUACCUAAAUCU [JMF 43] (puzzle: Sensor v3, turn-off variant 1) shows apparent KD of MS2 coat protein at minimum 30 nM?
Marked response: Criterion not met

Exam item: Please tell me: is the sequence GCAAGUUUUUUGUUUUUUAACAUGAGGAUCACCCAUGUAUUUUUAUAGUAUGUGUGAAUAAGAUCUCGUGGUCUUAG [JR_SV3TOV1_Sub100] (puzzle: Sensor v3, turn-off variant 1) at or over 30 nM in terms of apparent KD of MS2 coat protein?
Marked response: Criterion met
